Experiment: NCI Yeast Anticancer Drug Screen. Data for the bub3 strain (AID 167)
Settings: S. cerevisiae bub3 mutant strain, stronger effect = higher value; at 50.0 µM unless noted
The panel holds about 79,000 compounds, 15% with a hit somewhere; the sample as a whole holds those more often.
Quick reference: growth inhibition of the listed items.
MEASURED PARAMETER: growth inhibition (%)

COMPOUND: CN(Cc1ccccc1Cl)C(=O)Nc1cccc(Cl)c1
ASSAY RESULT: 86.7

COMPOUND: NC(C=O)C(O)C(O)C(O)CO (stereo unspecified)
ASSAY RESULT: -19.5

COMPOUND: CC(=O)Oc1ccc2c(c1)CCC2
ASSAY RESULT: 15.1

COMPOUND: CCOC(=O)[C@H]1Nc2c(cccc2[N+](=O)[O-])C2c3ccccc3CC21 (stereo partly specified)
ASSAY RESULT: 9.5

COMPOUND: Cc1nc2c(=O)[nH]c(=O)[nH]c2s1
ASSAY RESULT: -7.5

COMPOUND: C=Nc1ccc(Nc2ccccc2)cc1
ASSAY RESULT: -1.6

COMPOUND: CCN(CC)OC(=O)/C=C/c1ccccc1
ASSAY RESULT: -3.3

COMPOUND: CN(Cc1ccc(Cl)cc1)N=Nc1ccc(C(=O)O)cc1
ASSAY RESULT: 16.6

COMPOUND: Cc1nc2c(n1-c1ccc(Br)cc1)C(=O)c1ccccc1C2=O
ASSAY RESULT: -30.2

COMPOUND: O=C(O)CCNc1ccc(Cl)cc1[N+](=O)[O-]
ASSAY RESULT: 34.9

COMPOUND: CCOC(=O)c1cc(C(O)C(O)C(O)CO)oc1C (stereo unspecified)
ASSAY RESULT: 21.9

COMPOUND: FC(F)(F)c1ccc(C2=CCCCC2)cc1
ASSAY RESULT: -18.6

COMPOUND: CC(N1CCS(=O)(=O)CC1)P(=O)(O)O (stereo unspecified)
ASSAY RESULT: 17.8

COMPOUND: CCCCOC(=O)NC(Nc1ccc(S(N)(=O)=O)cc1)(C(F)(F)F)C(F)(F)F
ASSAY RESULT: 12.1

COMPOUND: CC(C)N(C(=O)C12C3C4C1C1C2C3C41C(=O)N(C(C)C)C(C)C)C(C)C (stereo unspecified)
ASSAY RESULT: 8.45

COMPOUND: CCCCCC1CC(C(C)=O)CN1c1ccc(F)cc1 (stereo unspecified)
ASSAY RESULT: -1

COMPOUND: CCCCCCCCCCCC(O)C(C)(C)C (stereo unspecified)
ASSAY RESULT: 11.9

COMPOUND: CC(C)[Si]1(C(C)C)OCC2OC(n3ccc(=O)[nH]c3=O)C([Se]c3ccccc3)C2O[Si](C(C)C)(C(C)C)O1 (stereo unspecified)
ASSAY RESULT: -49.9

COMPOUND: COc1ccc(/C=C2\CN(CCCC(=O)O)C(=O)C2=O)cc1
ASSAY RESULT: 4.1

COMPOUND: CCCCn1cnc2c(SC)ncnc21
ASSAY RESULT: -32.8

COMPOUND: O=C(NC(CO)Cc1ccccc1)OCc1ccccc1 (stereo unspecified)
ASSAY RESULT: 8.1

COMPOUND: COc1ccc2c(c1)OC[C@@H]1c3cc(NS(=O)(=O)c4ccccc4)cc(OCc4ccccc4)c3O[C@H]21
ASSAY RESULT: 1.4

COMPOUND: N#Cc1c(C(F)(F)F)cc(-c2cccs2)nc1SC(C(=O)Nc1cc(C(F)(F)F)cc(C(F)(F)F)c1)c1ccccc1 (stereo unspecified)
ASSAY RESULT: 9.1

COMPOUND: Cc1c(NC(=S)NC(=O)c2ccc([N+](=O)[O-])cc2)c(=O)n(-c2ccccc2)n1C
ASSAY RESULT: 32.9

COMPOUND: CCC1=C(c2ccc(OC)cc2)CC[C@@]2(CCNC2=O)[C@@H]1C
ASSAY RESULT: 3.8

COMPOUND: CCC(=O)C(C)=O
ASSAY RESULT: 0.15

These entries and their values trace back to PubChem BioAssay (NCI).
